target-or-test-system: AlpH (Streptomyces ambofaciens, UniProt Q6VMJ4)
Construct: N-terminal His6-tagged, pET28a, E. coli BL21(DE3); homodimer in the apo crystal
Sequence (Q6VMJ4 entry or part of it): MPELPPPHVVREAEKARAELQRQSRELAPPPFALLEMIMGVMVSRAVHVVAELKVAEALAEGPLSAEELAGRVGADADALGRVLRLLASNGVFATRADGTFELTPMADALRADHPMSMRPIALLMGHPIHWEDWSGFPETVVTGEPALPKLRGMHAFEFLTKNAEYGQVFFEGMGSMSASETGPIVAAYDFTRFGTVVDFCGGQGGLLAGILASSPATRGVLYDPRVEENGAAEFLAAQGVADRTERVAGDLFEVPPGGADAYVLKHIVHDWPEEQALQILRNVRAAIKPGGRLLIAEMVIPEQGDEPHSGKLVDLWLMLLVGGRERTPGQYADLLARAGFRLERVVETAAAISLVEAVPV
experimental-details: surface plasmon resonance (Biacore 8K, AlpH immobilized on CM5)
measure-name: Kd (nM)

| smiles-representation | target-or-test-system | recorded-measurement |
| --- | --- | --- |
| NNC(=O)CC[C@H](N)C(=O)O | AlpH (Streptomyces ambofaciens, UniProt Q6VMJ4) | 114 |
